Data origin, for the record: paper PMC10868842

- target desc: T1, AAV9P31 capsid (adeno-associated virus 9 variant with the 7-mer WPTSYDA inserted in VP3 VR-VIII) (adeno-associated virus 9, UniProt Q6JC40 1-736, WPTSYDA inserted between Q588 and A589)
- T1 construct: Assembled icosahedral virus particle carrying a GFP genome; capsids made from a RepCap plasmid usually hold VP1, VP2 and VP3 (surmise); also called AAV9P31 particles; AAV9P31 virion; source: HEK293T, triple-plasmid transfection, purified (iodixanol gradient ultracentrifugation)
- assay procedure: SPR; BIAcore 8K; AAV9P31 particles immobilised on a CM5 chip by amide coupling (sodium acetate pH 4.0); WT or mutated Car4 proteins flowed over at 30 ul/min, 25 °C, PBST; regeneration with 10 mM glycine pH 2.0
- condition details: both partners purified
The entries below come with measured Kd values attached.
Note: unit nM is implicit; provide only the numeric part.

Take a look at these entries with their results.
binder	result
Car4 (22-277) T92A (receptor, Mus musculus, UniProt Q64444 22-277, looked up, carbonic anhydrase IV (Car4), Mus musculus, residues 22-277; also called T92A_(Car4); source: E. coli BL21 (DE3), purified as the wild type; not shown: GST, N-terminal, cleaved) WCYEIQTKDPRSSCLGPEKWPGACKENQQSPINIVTARTKVNPRLTPFILVGYDQKQQWPIKNNQHTVEMALGGGACIIGGDLPARYEAVQLHLHWSNGNDNGSEHSIDGRHFAMEMHIVHKKLTSSKEDSKDKFAVLAFMIEVGDKVNKGFQPLVEALPSISKPHSTSTVRESSLQDMLPPSTKMYTYFRYNGSLTTPNCDETVIWTVYKQPIKIHKNQFLEFSKNLYYDEDQKLNMKDNVRPLQPLGKRQVFKS	379
Car4 (22-277) Q79A (receptor, Mus musculus, UniProt Q64444 22-277, looked up, carbonic anhydrase IV (Car4), Mus musculus, residues 22-277; also called Q79A_(Car4); source: E. coli BL21 (DE3), purified as the wild type; not shown: GST, N-terminal, cleaved) WCYEIQTKDPRSSCLGPEKWPGACKENQQSPINIVTARTKVNPRLTPFILVGYDQKQAWPIKNNQHTVEMTLGGGACIIGGDLPARYEAVQLHLHWSNGNDNGSEHSIDGRHFAMEMHIVHKKLTSSKEDSKDKFAVLAFMIEVGDKVNKGFQPLVEALPSISKPHSTSTVRESSLQDMLPPSTKMYTYFRYNGSLTTPNCDETVIWTVYKQPIKIHKNQFLEFSKNLYYDEDQKLNMKDNVRPLQPLGKRQVFKS	292
Car4 (22-277) I70A (receptor, Mus musculus, UniProt Q64444 22-277, looked up, carbonic anhydrase IV (Car4), Mus musculus, residues 22-277; also called I70A_(Car4); source: E. coli BL21 (DE3), purified as the wild type; not shown: GST, N-terminal, cleaved) WCYEIQTKDPRSSCLGPEKWPGACKENQQSPINIVTARTKVNPRLTPFALVGYDQKQQWPIKNNQHTVEMTLGGGACIIGGDLPARYEAVQLHLHWSNGNDNGSEHSIDGRHFAMEMHIVHKKLTSSKEDSKDKFAVLAFMIEVGDKVNKGFQPLVEALPSISKPHSTSTVRESSLQDMLPPSTKMYTYFRYNGSLTTPNCDETVIWTVYKQPIKIHKNQFLEFSKNLYYDEDQKLNMKDNVRPLQPLGKRQVFKS	743

Incoming: Please give the measured Kd for this binder: Car4 (22-277) E90M (mouse residue changed to its hCar4 counterpart) (receptor, Mus musculus, UniProt Q64444 22-277, looked up, carbonic anhydrase IV (Car4), Mus musculus, residues 22-277; also called E90M_(Car4); source: E. coli BL21 (DE3), purified as the wild type; not shown: GST, N-terminal, cleaved) WCYEIQTKDPRSSCLGPEKWPGACKENQQSPINIVTARTKVNPRLTPFILVGYDQKQQWPIKNNQHTVMMTLGGGACIIGGDLPARYEAVQLHLHWSNGNDNGSEHSIDGRHFAMEMHIVHKKLTSSKEDSKDKFAVLAFMIEVGDKVNKGFQPLVEALPSISKPHSTSTVRESSLQDMLPPSTKMYTYFRYNGSLTTPNCDETVIWTVYKQPIKIHKNQFLEFSKNLYYDEDQKLNMKDNVRPLQPLGKRQVFKS
Outgoing: 32.3
